# procedure text: stimulators of nuclear beta-catenin in C2C12, primary screen, imaging, WNT3A-conditioned medium, mouse C2C12, NPC library (AID 1117326)
# experimental parameters: at 10 µM, stronger effect = higher value
recorded metric: nuclear beta-catenin stimulation (%)
A number alone suffices; assume %.

Short answer for COC(=O)c1cncn1C(C)c1ccccc1 (stereo not drawn) : nuclear beta-catenin stimulation was -0.2

Short answer for CC(C)(C)NC[C@H](O)c1ccc(O)cc1Cl : nuclear beta-catenin stimulation was 0.3

Short answer for CN1C2CCC(C)(C)C1CC(OC(=O)C(O)(c1cccs1)c1cccs1)C2 (stereo not drawn) : nuclear beta-catenin stimulation was -1.7

Short answer for CCc1ccc(C2CCNCC2)cc1 : nuclear beta-catenin stimulation was -1.4

Short answer for CCC1(c2ccccc2)CCC(=O)NC1=O (stereo not drawn) : nuclear beta-catenin stimulation was 0.3

Short answer for COC(=O)[C@@H](N)CCCN/C(N)=N/[N+](=O)[O-] : nuclear beta-catenin stimulation was -0.9

Short answer for CC(C)NCC(O)c1ccccc1Cl (stereo not drawn) : nuclear beta-catenin stimulation was -0.5

Short answer for c1cc2c(c(N3CCNCC3)c1)OCCO2 : nuclear beta-catenin stimulation was -1.4

Short answer for CCCC1CCCCN1 (stereo not drawn) : nuclear beta-catenin stimulation was 0.5

Short answer for NC(=O)c1cc([N+](=O)[O-])cc([N+](=O)[O-])c1 : nuclear beta-catenin stimulation was -1.3

Short answer for C=CCN1CC[C@]23CCCC[C@H]2[C@H]1Cc1ccc(O)cc13 : nuclear beta-catenin stimulation was 3.5

Short answer for CCCN1CCC[C@@H]2Cc3nc(N)ncc3C[C@H]21 : nuclear beta-catenin stimulation was 4.8

Short answer for Fc1ccc(C(OCCN2CCN(CCCc3ccccc3)CC2)c2ccc(F)cc2)cc1 : nuclear beta-catenin stimulation was 21.5

----------
# procedure text: ovarian cancer cell viability with rucaparib, profiling panel, oncology-focused library, rucaparib conditional (AID 1508598)
# experimental parameters: patient-derived ovarian cancer cells, CellTiter-Glo viability, 144 h; at 0.0781 µM; OCI-C5x cells; with rucaparib 10 µM; stronger effect = lower value; 100% = cells with rucaparib alone
I'd be grateful if you could share measured viability for these entries.
A number alone suffices; assume %.

Short answer for Cc1c(N)nc([C@H](CC(N)=O)NC[C@@H](N)C(N)=O)nc1C(=O)N[C@H](C(=O)N[C@@H](C)[C@H](O)[C@@H](C)C(=O)N[C@@H](C(=O)NCCc1nc(-c2nc(C(=O)NCCC[S+](C)C)cs2)cs1)[C@@H](C)O)C(O[C@H]1O[C@H](CO)[C@H](O)[C@@H](O)[C@H]1O[C@H]1O[C@H](CO)[C@@H](O)[C@H](OC(N)=O)[C@@H]1O)c1cnc[nH]1 (stereo partly drawn) : viability was 103

Short answer for O=S(=O)(CC1CS1)c1ccc(Oc2ccccc2)cc1 (stereo not drawn) : viability was 121

Short answer for Cc1sc2c(c1C)C(c1ccc(Cl)cc1)=N[C@@H](CC(N)=O)c1nnc(C)n1-2 : viability was 38.4

----------
# Test system: Aerobactin synthetase IucA (Klebsiella pneumoniae, hypervirulent)
# procedure text: IucA enzyme inhibition, biochemical, LOPAC library, absorbance readout (AID 1346212);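 also: 100% = no compound wells and 0% = no enzyme wells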
# experimental parameters: IucA enzyme assay, absorbance (OD) readout; stronger effect = lower value; concentration not given here
I'd be grateful if you could share measured remaining activity for these entries.
A number alone suffices; assume %.

Short answer for CCCn1cnc2c1c(=O)n(CCCCC(C)=O)c(=O)n2C : remaining activity was 93.8

Short answer for COCCOC(=O)C1=C(C)NC(C)=C(C(=O)OC(C)C)C1c1cccc([N+](=O)[O-])c1 (configuration not stated) : remaining activity was 111

Short answer for NCCCCN : remaining activity was 94.5

Short answer for O=c1cc(-c2ccc(O)cc2)oc2cc(O)cc(O)c12 : remaining activity was 107

Short answer for CCCCCCCCCCC/C=C\C(C)(C)/C=C\CCCC(=O)O : remaining activity was 86.5

Short answer for CC1(C)CCC2=C(O1)c1ccccc1C(=O)C2=O : remaining activity was 113

Short answer for Clc1ccc(C(c2ccc(Cl)cc2)n2cc[n+](CC(OCc3ccc(Cl)cc3Cl)c3ccc(Cl)cc3Cl)c2)cc1 (configuration not stated) : remaining activity was 106

Short answer for O=C(O)CCC(=O)N1CCCC1C(=O)O (configuration not stated) : remaining activity was 98.4

Short answer for c1cnc2c(c1)ccc1cccnc12 : remaining activity was 101

Short answer for CCCCNc1c(C(=O)OCC)c(C)nc2c1cnn2CC : remaining activity was 121

Short answer for CNC(=O)[C@H]1O[C@@H](n2cnc3c(NCc4ccc(N)cc4)ncnc32)[C@H](O)[C@@H]1O : remaining activity was 119

Short answer for CCCC[N+]1(C)C2CC(OC(=O)[C@H](CO)c3ccccc3)CC1C1OC12 (some centres not stated) : remaining activity was 117

Short answer for N[C@@H](Cc1ccc(N(CCCl)CCCl)cc1)C(=O)O : remaining activity was 104

Short answer for Cc1nc(N=Nc2cc(S(=O)(=O)O)c3cc([N+](=O)[O-])cc(S(=O)(=O)O)c3c2)c(COP(=O)(O)O)c(C=O)c1O : remaining activity was 118

Short answer for Cc1ccc(/C(=C\CN2CCCC2)c2ccccn2)cc1 : remaining activity was 121

Short answer for CC(C)NC[C@@H](O)COc1ccc(CC(N)=O)cc1 : remaining activity was 117

Short answer for COc1cc2c(CCNC(C)=O)c[nH]c2cc1O : remaining activity was 92.2

Short answer for Cc1cc([C@@H]2CCCN2C)on1 : remaining activity was 91.6

Short answer for CCCN1CCC[C@@H]2Cc3[nH]ncc3C[C@H]21 : remaining activity was 117

Short answer for CC(C)[C@@]1(NC(=O)[C@@H]2C[C@@H]3c4cccc5[nH]cc(c45)C[C@H]3N(C)C2)O[C@@]2(O)[C@@H]3CCCN3C(=O)[C@H](Cc3ccccc3)N2C1=O : remaining activity was 120

Short answer for C[N+]1(CCCCC[N+]2(C)CCCC2)CCCC1 : remaining activity was 119

Short answer for Nc1nc2ccc(OC(F)(F)F)cc2s1 : remaining activity was 98.9

Short answer for CCOC(=O)N1CCC(=C2c3ccc(Cl)cc3CCc3cccnc32)CC1 : remaining activity was 112

Short answer for NC(=O)c1cn(Cc2c(F)cccc2F)nn1 : remaining activity was 117

Short answer for O=c1[nH]c2ccccc2c2ccccc12 : remaining activity was 97.7

Short answer for CN(C)c1ccc(O)c2c1C[C@H]1C[C@H]3[C@H](N(C)C)C(=O)C(C(N)=O)=C(O)[C@@]3(O)C(=O)C1=C2O : remaining activity was 110

Short answer for CN(C)S(=O)(=O)c1ccc2c(c1)/C(=C/c1cc3c([nH]1)CCCC3)C(=O)N2 : remaining activity was 121

Short answer for O=c1[nH]c2ccccc2n1CCCN1CCC(n2c(=O)[nH]c3cc(Cl)ccc32)CC1 : remaining activity was 105

Short answer for C[N+](C)(C)CCO : remaining activity was 112

Short answer for NCCCCNCCCN : remaining activity was 107

Short answer for O=C(N[C@H]1CN2CCC1CC2)c1ccc(Cl)cc1 : remaining activity was 109

Short answer for Clc1nccc2c1ccc1ccccc12 : remaining activity was 109

Short answer for CN(C)c1nc(N(C)C)nc(N(C)C)n1 : remaining activity was 120

Short answer for N#CC(C#N)=C(N)/C(C#N)=C/c1cc(O)c(O)c(O)c1 : remaining activity was 87.7

Short answer for CC1=C(CC(=O)O)c2cc(F)ccc2/C1=C\c1ccc(S(C)=O)cc1 (configuration not stated) : remaining activity was 119

Short answer for O=C1C(SCCO)=C(SCCO)C(=O)c2ccccc21 : remaining activity was 117

Short answer for COc1ccc2c(c1OC)C(=O)O[C@H]2[C@@H]1c2cc3c(cc2CCN1C)OCO3 : remaining activity was 110

Short answer for CC1=C(C(=O)O)N2C(=O)[C@@H](NC(=O)[C@H](N)C3=CCC=CC3)[C@H]2SC1 : remaining activity was 113

Short answer for COc1ccccc1N1CCN(CCN2C(=O)CC3(CCCC3)CC2=O)CC1 : remaining activity was 117

Short answer for O=C(O)[C@@H]1C[C@H](C(=O)O)N1 : remaining activity was 109

Short answer for NC1CCc2cc(O)c(O)cc2C1 (configuration not stated) : remaining activity was 106

Short answer for COc1ccc(/C=C/C(=O)Nc2ccccc2C(=O)O)cc1OC : remaining activity was 92.2

Short answer for O=C(OC1CCN(CCCl)CC1)C(c1ccccc1)c1ccccc1 : remaining activity was 106

Short answer for CC(C)(C)c1ccc(/C=C/C(=O)Nc2ccc3c(c2)OCCO3)cc1 : remaining activity was 107

Short answer for Nc1nc2ccc(Cl)cc2c2nc(-c3ccco3)nn12 : remaining activity was 104

Short answer for NC1CONC1=O (configuration not stated) : remaining activity was 120

Short answer for O=C(c1ccc(OCCN2CCCCC2)cc1)c1c(-c2ccc(O)cc2)sc2cc(O)ccc12 : remaining activity was 92
